Collected EC20 values appear next to each entry.
Species: Oryctolagus cuniculus
assay.summary: In vitro concentration at which cardiac refractoriness in rabbit is increased by 20 ms
Assay type: functional
condition.set: Heart

# compound, EC20 (nM)
measured = [
    ("CN1Cc2ccccc2[C@H](c2ccc(Cl)cc2)N=C1OCc1ccc(NS(C)(=O)=O)cc1", 4),
    ("CN1Cc2ccccc2C(c2ccc(Cl)cc2)N=C1SCc1ccc(NS(C)(=O)=O)cc1 (stereo unspecified)", 5.5),
    ("CSc1ccc([C@H]2N=C(OCc3ccc(NS(C)(=O)=O)cc3)N(C)Cc3ccccc32)cc1.Cl", 7),
    ("CN1Cc2ccccc2C(c2ccc(Cl)cc2)N=C1CCc1ccc(NS(C)(=O)=O)cc1 (stereo unspecified)", 10),
    ("CSc1ccc([C@@H]2N=C(OCc3ccc(NS(C)(=O)=O)cc3)N(C)Cc3ccccc32)cc1.Cl", 8),
    ("CN1Cc2ccccc2[C@H](c2ccccc2)N=C1OCc1ccc(NS(C)(=O)=O)cc1.O=C(O)/C=C/C(=O)O", 4),
]

---

Species: Oryctolagus cuniculus
assay.summary: In vitro concentration at which cardiac refractoriness in rabbit is increased by 20 ms
Assay type: functional
condition.set: Heart
Collected EC20 values appear next to each entry.
readout.type: EC20

# compound, readout.type, test.result
records = [
    ("CN1Cc2ccccc2C(c2ccccc2)N=C1CCc1ccc(NS(C)(=O)=O)cc1 (centres undefined)", "EC20", "20 nM"),
    ("CN1Cc2ccccc2C(c2ccc(F)cc2F)N=C1CCc1ccc(NS(C)(=O)=O)cc1 (centres undefined)", "EC20", "4 nM"),
    ("CN1Cc2ccccc2C(c2ccccc2)N=C1CCc1ccccc1NS(C)(=O)=O (centres undefined)", "EC20", "500 nM"),
    ("CN1Cc2ccccc2[C@@H](c2ccccc2)N=C1OCc1ccc(NS(C)(=O)=O)cc1.O=C(O)/C=C/C(=O)O", "EC20", "1.5 nM"),
    ("CN1Cc2ccc(NS(C)(=O)=O)cc2C(c2ccccc2)N=C1CCc1ccccc1 (centres undefined)", "EC20", "655 nM"),
    ("CCS(=O)(=O)Nc1ccc(CCC2=NC(c3ccccc3)c3ccccc3CN2C)cc1 (centres undefined)", "EC20", "100 nM"),
    ("CN1Cc2ccccc2C(c2ccc(NS(C)(=O)=O)cc2)N=C1CCc1ccccc1 (centres undefined)", "EC20", "780 nM"),
    ("CN1Cc2ccccc2[C@@H](c2ccc(F)cc2F)N=C1CCc1ccc(NS(C)(=O)=O)cc1.Cl", "EC20", "8 nM"),
    ("CN1Cc2ccccc2C(c2ccc(Cl)c(Cl)c2)N=C1OCc1ccc(NS(C)(=O)=O)cc1 (centres undefined)", "EC20", "2 nM"),
    ("CN(CCOc1ccc(NS(C)(=O)=O)cc1)CCc1ccc(NS(C)(=O)=O)cc1 [DOFETILIDE]", "EC20", "2 nM"),
    ("CN1Cc2ccccc2C(c2ccc(Cl)cc2)N=C1OCc1ccc(NS(C)(=O)=O)cc1 (centres undefined)", "EC20", "3 nM"),
    ("COc1ccc(C2N=C(OCc3ccc(NS(C)(=O)=O)cc3)N(C)Cc3ccccc32)cc1 (centres undefined)", "EC20", "4 nM"),
    ("CN1Cc2ccccc2C(c2ccccc2)N=C1OCc1ccc(NS(C)(=O)=O)cc1 (centres undefined)", "EC20", "6 nM"),
    ("CN1Cc2ccccc2[C@@H](c2ccc(Cl)cc2)N=C1OCc1ccc(NS(C)(=O)=O)cc1", "EC20", "2 nM"),
    ("CN1Cc2ccccc2C(c2ccccc2)N=C1CCc1ccccc1 (centres undefined)", "EC20", "60 nM"),
    ("CN1Cc2ccccc2C(c2ccccc2)N=C1CCc1ccc(NS(=O)(=O)C(F)(F)F)cc1 (centres undefined)", "EC20", "520 nM"),
    ("CSc1ccc(C2N=C(OCc3ccc(NS(C)(=O)=O)cc3)N(C)Cc3ccccc32)cc1 (centres undefined)", "EC20", "4 nM"),
    ("CN1Cc2ccccc2[C@H](c2ccc(F)cc2F)N=C1CCc1ccc(NS(C)(=O)=O)cc1.Cl", "EC20", "7 nM"),
    ("CN1Cc2ccccc2C(c2ccc(NS(C)(=O)=O)cc2)N=C1OCc1ccc(NS(C)(=O)=O)cc1 (centres undefined)", "EC20", "140 nM"),
]
